ASSAY_INFO: total protein half-life in vivo (active degradation + dilution); higher = more stable protein
TEST_CONDITIONS: E. coli NCM3722 delta-lon; growth: N-lim chemostat; doubling time 6 h
Respond with y for total protein half-life in vivo values of 6 h and above, n for values below.

[
  {
    "SEQUENCE_CONTENT": "MKFKTNKLSLNLVLASSLLAASIPAFAVTGDTDQPIHIESDQQSLDMQGNVVTFTGNVIVTQGTIKINADKVVVTRPGGEQGKEVIDGYGKPATFYQMQDNGKPVEGHASQMHYELAKDFVVLTGNAYLQQVDSNIKGDKITYLVKEQKMQAFSDKGKRVTTVLVPSQLQDKNNKGQTPAQKKGN [P0ADV1]",
    "CLASS_NAME": "y"
  },
  {
    "SEQUENCE_CONTENT": "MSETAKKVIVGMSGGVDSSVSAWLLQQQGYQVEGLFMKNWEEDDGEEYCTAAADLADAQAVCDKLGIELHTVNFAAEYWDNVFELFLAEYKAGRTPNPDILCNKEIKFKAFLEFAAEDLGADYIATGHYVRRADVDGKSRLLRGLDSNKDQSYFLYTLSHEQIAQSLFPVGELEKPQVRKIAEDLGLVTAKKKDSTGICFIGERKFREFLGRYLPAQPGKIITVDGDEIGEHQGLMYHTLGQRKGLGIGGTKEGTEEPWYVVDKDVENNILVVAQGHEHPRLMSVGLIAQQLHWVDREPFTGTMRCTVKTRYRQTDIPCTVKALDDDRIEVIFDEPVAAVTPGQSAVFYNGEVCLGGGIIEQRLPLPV",
    "CLASS_NAME": "n"
  },
  {
    "SEQUENCE_CONTENT": "MNIYTFDFDEIESQEDFYRDFSQTFGLAKDKVRDLDSLWDVLMNDVLPLPLEIEFVHLGEKTRRRFGALILLFDEAEEELEGHLRFNVRH",
    "CLASS_NAME": "y"
  },
  {
    "SEQUENCE_CONTENT": "MDKSKRHLAWWVVGLLAVAAIVAWWLLRPAGVPEGFAVSNGRIEATEVDIASKIAGRIDTILVKEGKFVREGEVLAKMDTRVLQEQRLEAIAQIKEAQSAVAAAQALLEQRQSETRAAQSLVNQRQAELDSVAKRHTRSRSLAQRGAISAQQLDDDRAAAESARAALESAKAQVSASKAAIEAARTNIIQAQTRVEAAQATERRIAADIDDSELKAPRDGRVQYRVAEPGEVLAAGGRVLNMVDLSDVYMTFFLPTEQAGTLKLGGEARLILDAAPDLRIPATISFVASVAQFTPKTVETSDERLKLMFRVKARIPPELLQQHLEYVKTGLPGVAWVRVNEELPWPDDLVVRLPQ",
    "CLASS_NAME": "y"
  },
  {
    "SEQUENCE_CONTENT": "MKAFNKLFSLVVASVLVFSLAGCGDKEESKKFSANLNGTEIAITYVYKGDKVLKQSSETKIQFASIGATTKEDAAKTLEPLSAKYKNIAGVEEKLTYTDTYAQENVTIDMEKVDFKALQGISGINVSAEDAKKGITMAQMELVMKAAGFKEVK",
    "CLASS_NAME": "n"
  },
  {
    "SEQUENCE_CONTENT": "MRTTIAVVLGAISLTSAFVFADKPDVARSANDEVSTLFFGHDDRVPVNDTTQSPWDAVGQLETASGNLCTATLIAPNLALTAGHCLLTPPKGKADKAVALRFVSNKGLWRYEIHDIEGRVDPTLGKRLKADGDGWIVPPAAAPWDFGLIVLRNPPSGITPLPLFEGDKAALTAALKAAGRKVTQAGYPEDHLDTLYSHQNCEVTGWAQTSVMSHQCDTLPGDSGSPLMLHTDDGWQLIGVQSSAPAAKDRWRADNRAISVTGFRDKLDQLSQK",
    "CLASS_NAME": "n"
  }
]

* * *

Readings of total protein half-life in vivo for the listed sequences
ASSAY_INFO: total protein half-life in vivo (active degradation + dilution); higher = more stable protein
TEST_CONDITIONS: E. coli NCM3722 delta-clpP; growth: N-lim chemostat; doubling time 6 h

[
  {
    "SEQUENCE_CONTENT": "MLIRVEIPIDAPGIDALLRRSFESDAEAKLVHDLREDGFLTLGLVATDDEGQVIGYVAFSPVDVQGEDLQWVGMAPLAVDEKYRGQGLARQLVYEGLDSLNEFGYAAVVTLGDPALYSRFGFELAAHHDLRCRWPGTESAFQVHRLADDALNGVTGLVEYHEHFNRF",
    "total protein half-life in vivo (h)": 4.46
  },
  {
    "SEQUENCE_CONTENT": "MTNNPLIPQSKLPQLGTTIFTQMSALAQQHQAINLSQGFPDFDGPRYLQERLAHHVAQGANQYAPMTGVQALREAIAQKTERLYGYQPDADSDITVTAGATEALYAAITALVRNGDEVICFDPSYDSYAPAIALSGGIVKRMALQPPHFRVDWQEFAALLSERTRLVILNTPHNPSATVWQQADFAALWQAIAGHEIFVISDEVYEHINFSQQGHASVLAHPQLRERAVAVSSFGKTYHMTGWKVGYCVAPAPISAEIRKVHQYLTFSVNTPAQLALADMLRAEPEHYLALPDFYRQKRDILVNALNESRLEILPCEGTYFLLVDYSAVSTLDDVEFCQWLTQEHGVAAIPLSVFCADPFPHKLIRLCFAKKESTLLAAAERLRQL",
    "total protein half-life in vivo (h)": 1.93
  },
  {
    "SEQUENCE_CONTENT": "MGNSDRKPGLIKRLWKWWRTPSRLALGTLLLIGFVGGIVFWGGFNTGMEKANTEEFCISCHEMRNTVYQEYMDSVHYNNRSGVRATCPDCHVPHEFVPKMIRKLKASKELYGKIFGVIDTPQKFEAHRLTMAQNEWRRMKDNNSQECRNCHNFEYMDTTAQKSVAAKMHDQAVKDGQTCIDCHKGIAHKLPDMREVEPGF [P0ABL5]",
    "total protein half-life in vivo (h)": 4.79
  }
]

* * *

ASSAY_INFO: total protein half-life in vivo (active degradation + dilution); higher = more stable protein
TEST_CONDITIONS: wild type E. coli NCM3722; growth: N-lim chemostat; doubling time 6 h

[
  {
    "SEQUENCE_CONTENT": "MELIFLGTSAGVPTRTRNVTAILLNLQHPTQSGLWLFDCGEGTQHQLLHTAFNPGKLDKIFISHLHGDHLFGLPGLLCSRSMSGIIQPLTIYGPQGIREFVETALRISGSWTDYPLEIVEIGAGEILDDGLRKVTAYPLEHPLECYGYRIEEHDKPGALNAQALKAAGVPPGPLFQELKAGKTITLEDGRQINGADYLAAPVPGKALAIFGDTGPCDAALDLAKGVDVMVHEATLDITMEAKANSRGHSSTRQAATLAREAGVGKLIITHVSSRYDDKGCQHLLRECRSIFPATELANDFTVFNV [P0A8V0]",
    "total protein half-life in vivo (h)": 3.93
  },
  {
    "SEQUENCE_CONTENT": "MKGGKRVQTARPNRINGEIRAQEVRLTGLEGEQLGIVSLREALEKAEEAGVDLVEISPNAEPPVCRIMDYGKFLYEKSKSSKEQKKKQKVIQVKEIKFRPGTDEGDYQVKLRSLIRFLEEGDKAKITLRFRGREMAHQQIGMEVLNRVKDDLQELAVVESFPTKIEGRQMIMVLAPKKKQ [P0A707]",
    "total protein half-life in vivo (h)": 4.69
  },
  {
    "SEQUENCE_CONTENT": "MQILLANPRGFCAGVDRAISIVENALAIYGAPIYVRHEVVHNRYVVDSLRERGAIFIEQISEVPDGAILIFSAHGVSQAVRNEAKSRDLTVFDATCPLVTKVHMEVARASRRGEESILIGHAGHPEVEGTMGQYSNPEGGMYLVESPDDVWKLTVKNEEKLSFMTQTTLSVDDTSDVIDALRKRFPKIVGPRKDDICYATTNRQEAVRALAEQAEVVLVVGSKNSSNSNRLAELAQRMGKRAFLIDDAKDIQEEWVKEVKCVGVTAGASAPDILVQNVVARLQQLGGGEAIPLEGREENIVFEVPKELRVDIREVD",
    "total protein half-life in vivo (h)": 2.69
  },
  {
    "SEQUENCE_CONTENT": "MIHSSVKRWGNSPAVRIPATLMQALNLNIDDEVKIDLVDGKLIIEPVRKEPVFTLAELVNDITPENLHENIDWGEPKDKEVW [P0AE72]",
    "total protein half-life in vivo (h)": 1.94
  },
  {
    "SEQUENCE_CONTENT": "MSTLEPAAQSKPPGGFKLWLSQLQMKHGRKLVIALPYIWLILLFLLPFLIVFKISLAEMARAIPPYTELMEWADGQLSITLNLGNFLQLTDDPLYFDAYLQSLQVAAISTFCCLLIGYPLAWAVAHSKPSTRNILLLLVILPSWTSFLIRVYAWMGILKNNGVLNNFLLWLGVIDQPLTILHTNLAVYIGIVYAYVPFMVLPIYTALIRIDYSLVEAALDLGARPLKTFFTVIVPLTKGGIIAGSMLVFIPAVGEFVIPELLGGPDSIMIGRVLWQEFFNNRDWPVASAVAIIMLLLLIVPIMWFHKHQQKSVGEHG",
    "total protein half-life in vivo (h)": 5.38
  },
  {
    "SEQUENCE_CONTENT": "MERVSITERPDWREKAHEYGFNFHTMYGEPYWCEDAYYKLTLAQVEKLEEVTAELHQMCLKVVEKVIASDELMTKFRIPKHTWSFVRQSWLTHQPSLYSRLDLAWDGTGEPKLLENNADTPTSLYEAAFFQWIWLEDQLNAGNLPEGSDQFNSLQEKLIDRFVELREQYGFQLLHLTCCRDTVEDRGTIQYLQDCATEAEIATEFLYIDDIGLGEKGQFTDLQDQVISNLFKLYPWEFMLREMFSTKLEDAGVRWLEPAWKSIISNKALLPLLWEMFPNHPNLLPAYFAEDDHPQMEKYVVKPIFSREGANVSIIENGKTIEAAEGPYGEEGMIVQQFHPLPKFGDSYMLIGSWLVNDQPAGIGIREDRALITQDMSRFYPHIFVE [P0ADT5]",
    "total protein half-life in vivo (h)": 4.46
  }
]
